system: human recombinant KAT-II (Homo sapiens (Human))
assay-info: KAT-II inhibitory test
test-parameters: 3.0 μmol/L kynurenine, 37° C., 1 hr, pH 8.0; kynurenic acid quantified by HPLC
pIC50: −log10 of the molar value.
measurement-name: pIC50

Cn1c(C2(F)CC2)nc2sc(N3CCC[C@@H]3C(=O)NCc3ccccc3)nc2c1=O: 8.06
Cc1noc(-c2nc3sc(N4CCC[C@@H]4C(=O)NCc4ccccc4)nc3c(=O)n2C)n1: 8.14
CC(=O)c1nc2sc(N3CCC[C@@H]3C(=O)NCc3ccccc3)nc2c(=O)n1C: 7.82
Cn1c(C(F)(F)F)nc2sc(N3CCC[C@@H]3C(=O)NCc3ccccc3)nc2c1=O: 7.59

I: O=C(NCc1ccccc1)[C@H]1CCCN1c1nc2c(=O)[nH]c(C(F)F)nc2s1
II: O=C(NCc1ccccc1)[C@H]1CCCN1c1nc2c(=O)[nH]c(C(F)(F)F)nc2s1
III: CC(C)c1cc(=O)n2nc([C@H]3CCCN3C(=O)Cc3ccc(F)cc3)sc2n1
IV: CCc1c(Cl)c(=O)n2nc(N3CCC[C@@H]3C(=O)NCc3ccccc3)sc2c1Cl
Output the entries ranked by pIC50 from maximum down to minimum. Write the labels in rank order as requested.
II, I, IV, III

* * *

system: human recombinant KAT-II (Homo sapiens (Human))
assay-info: KAT-II inhibitory test
test-parameters: 3.0 μmol/L kynurenine, 37° C., 1 hr, pH 8.0; kynurenic acid quantified by HPLC
measurement-name: IC50 (nM)

Here's what some known entries look like.
CCc1nc2sc([C@H]3CCCN3C(=O)N[C@H](C)c3ccccc3)nc2c(=O)n1C [Example 17]: 1600
CCn1nc(C2CC2)c2sc(N3CCC[C@@H]3C(=O)NCc3ccccc3)nc2c1=O [Example 614]: 16
CCn1c(C(F)F)nc2sc(N3CCC[C@@H]3C(=O)NCc3nccs3)nc2c1=O [Example 314]: 610
Cc1cc2c(=O)n3nc(N4CCC[C@@H]4C(=O)NCc4ccccc4)sc3nc2s1 [Example 656]: 44
C[C@H](c1nc2sc(N3CCC[C@@H]3C(=O)NCc3ccccc3)nc2c(=O)n1C)N(C)C [Example 376]: 14

1: O=C(Oc1ccccc1)N1CCC[C@@H]1c1nc2c(=O)[nH]c(-c3ccccc3)nc2s1 [Example 65]
2: CCc1nc2sc([C@H]3CCCN3C(=O)NCc3ccccc3)nc2c(=O)n1C [Example 9]
So which one has the bigger IC50 here, 1 or 2 ? Your answer should be the label of the entry you select.
2

P: CNCCn1c(C(F)(F)F)nc2sc(N3CCC[C@@H]3C(=O)NCc3ccccc3)nc2c1=O [Example 363]
Q: O=C(NCc1ccccc1)[C@H]1CCCN1c1nc2c(=O)[nH]cc(C(F)(F)F)c2s1 [Example 617]
From the recorded data, which exceeds the other in IC50: P or Q ? Kindly state the label of the option you pick.
Q

I: Cc1cc(=O)n2nc(N3CCC[C@@H]3C(=O)NC(C)(C)c3ccccc3)sc2n1 [Example 636]
II: O=C(NCc1ccccc1)[C@H]1CCCN1c1nc2c(=O)n(C3COC3)c(C(F)(F)F)nc2s1 [Example 251]
III: CC1(c2nc3sc([C@H]4CCCN4C(=O)Oc4ccccc4)nc3c(=O)[nH]2)COC1 [Example 116]
IV: Cn1c(-c2ccccn2)nc2sc(N3CCC[C@@H]3C(=O)NCc3ccccc3)nc2c1=O [Example 194]
Order these by IC50, descending, and give the full ranking. Provide the ranking by listing each label in its place in the requested order.
I, IV, II, III

* * *

system: human recombinant KAT-II (Homo sapiens (Human), UniProt Q8N5Z0)
Sequence (Q8N5Z0 30-425): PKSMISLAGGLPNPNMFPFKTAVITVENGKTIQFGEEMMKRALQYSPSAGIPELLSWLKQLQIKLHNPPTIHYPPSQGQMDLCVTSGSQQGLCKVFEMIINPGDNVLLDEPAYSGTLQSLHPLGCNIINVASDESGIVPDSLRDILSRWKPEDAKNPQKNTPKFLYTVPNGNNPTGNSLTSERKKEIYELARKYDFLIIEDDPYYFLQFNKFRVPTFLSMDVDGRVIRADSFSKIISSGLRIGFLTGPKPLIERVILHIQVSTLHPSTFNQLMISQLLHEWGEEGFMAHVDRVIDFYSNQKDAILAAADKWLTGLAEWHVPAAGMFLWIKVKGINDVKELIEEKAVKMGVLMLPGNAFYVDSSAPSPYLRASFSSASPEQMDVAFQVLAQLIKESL
assay-info: KAT-II inhibitory test
test-parameters: 3.0 μmol/L kynurenine, 37° C., 1 hr, pH 8.0; kynurenic acid quantified by HPLC
pIC50: −log10 of the molar value.
measurement-name: pIC50

P: CCn1c(C(F)F)nc2sc(N3CCC[C@@H]3C(=O)N[C@@H](c3ccccc3)C3CC3)nc2c1=O [Example 299]
Q: CC(C)(F)c1nc2sc(N3CCCN3C(=O)Cc3ccccc3)nc2c(=O)[nH]1 [Example 133]
R: Cc1nc2sc(N3CCC[C@@H]3C(=O)NCc3ccccc3)nn2c(=O)c1-c1ccccc1 [Example 648]
S: O=C(NCc1ccccc1)[C@H]1CCCN1c1nc2c(=O)n(C3CCOCC3)c(C(F)(F)F)nc2s1 [Example 244]
Order the entries above by descending pIC50. Please respond by ranking the labels in the order requested.
S, R, Q, P

* * *

system: human recombinant KAT-II (Homo sapiens (Human), UniProt Q8N5Z0)
assay-info: KAT-II inhibitory test
test-parameters: 3.0 μmol/L kynurenine, 37° C., 1 hr, pH 8.0; kynurenic acid quantified by HPLC
measurement-name: IC50 (µM)

Example entries begin here.
O=C(Oc1ccccc1)N1CCC[C@@H]1c1nc2c(=O)[nH]c(N3CCCCC3)nc2s1: 0.046
CN(C)CCCn1c(C(F)(F)F)nc2sc(N3CCC[C@@H]3C(=O)NCc3ccccc3)nc2c1=O: 0.17
O=C(NCc1ccccc1)[C@H]1CCCN1c1ccc2nc(-c3ccccc3)cc(=O)n2n1: 0.59
Cc1cccc(OC(=O)N2CCC[C@@H]2c2nc3c(=O)[nH]c(C4(C#N)CC4)nc3s2)c1: 0.0061
Cc1noc(-c2nc3sc(N4CCC[C@@H]4C(=O)NCc4ccccc4)nc3c(=O)[nH]2)n1: 0.012

a: O=C(NCc1ccccc1)[C@H]1CCCN1c1nc2c(=O)[nH]c(-c3ccccc3F)nc2s1
b: CCn1c(C(F)F)nc2sc(N3CCC[C@@H]3C(=O)NCc3cc(C)on3)nc2c1=O
Would you mind telling me which has the lower recorded IC50 between a and b ? Could you answer with the label of the item you picked?
a
(a: 0.006 µM, b: 0.34 µM)

* * *

system: human recombinant KAT-II (Homo sapiens (Human), UniProt Q8N5Z0)
assay-info: KAT-II inhibitory test
Type: biochemical
test-parameters: 3.0 μmol/L kynurenine, 37° C., 1 hr, pH 8.0; kynurenic acid quantified by HPLC
measurement-name: IC50 (nM)

CC(C)c1nc2sc([C@H]3CCCN3C(=O)Oc3ccccc3)nn2c(=O)c1Cl: 48

1: CCc1nc2sc(N3CCC[C@@H]3C(=O)NCc3cnc(C)cn3)nn2c(=O)c1F
2: CC(C)n1c(C(F)(F)F)nc2sc([C@H]3CCCN3C(=O)NCc3ccccc3Cl)nc2c1=O
Returns: the argument ( 1 or 2 ) having the larger IC50. Answer with the label corresponding to your selection.
2
(2: 6200 nM, 1: 2200 nM)

* * *

system: human recombinant KAT-II (Homo sapiens (Human), UniProt Q8N5Z0)
assay-info: KAT-II inhibitory test
test-parameters: 3.0 μmol/L kynurenine, 37° C., 1 hr, pH 8.0; kynurenic acid quantified by HPLC
pIC50: −log10 of the molar value.
measurement-name: pIC50

Field: example entries. Status: answers known.
Cn1c(C2CCOCC2)nc2sc(N3CCC[C@@H]3C(=O)NCc3ccccc3)nc2c1=O [Example 259]: 8.37
CC(C)(F)c1[nH]c(=O)c2nc(N3CCC[C@@H]3C(=O)NCc3ccccc3)sc2c1Cl [Example 626]: 7.82
CC(C)c1cc(=O)n2nc([C@H]3CCCN3C(=O)OCc3ccccc3)sc2n1 [Example 144]: 6.14

A: O=C(NCc1ccccc1)[C@H]1CCCN1c1ccc2nc(-c3ccccc3F)[nH]c(=O)c2n1 [Example 713]
B: COC1CN(c2nc3sc(N4CCC[C@@H]4C(=O)COc4ccccc4)nc3c(=O)n2C)C1 [Example 578]
C: Cn1c(CN2Cc3ccccc3C2)nc2sc(N3CCC[C@@H]3C(=O)NCc3ccccc3)nc2c1=O [Example 328]
Arrange the 3 compounds from largest to smallest pIC50. Answer format: list of labels, ordered as asked.
C, B, A
(C: 7.77, B: 7.55, A: 7.06)

* * *

system: human recombinant KAT-II (Homo sapiens (Human))
assay-info: KAT-II inhibitory test
test-parameters: 3.0 μmol/L kynurenine, 37° C., 1 hr, pH 8.0; kynurenic acid quantified by HPLC
pIC50: −log10 of the molar value.
measurement-name: pIC50

Recorded results for 6 compounds are shown here.
CN1CCn2c1nc1sc(N3CCC[C@@H]3C(=O)NCc3ccccc3)nc1c2=O: 7.51
CCn1c(C(F)F)nc2sc(N3CCC[C@@H]3C(=O)N[C@@H](c3ccccc3)C(F)(F)F)nc2c1=O: 5.59
Cc1nn(C2CCCCC2)c(=O)c2nc(N3CCC[C@@H]3C(=O)NCc3ccccc3)sc12: 7.14
CCc1nn(C2CCOCC2)c(=O)c2nc(N3CCC[C@@H]3C(=O)NCc3ccccc3)sc12: 7.66
CCc1nc2ccc(N3CCC[C@@H]3C(=O)NCc3ccccc3)nc2c(=O)n1C: 6.96
CCc1nc2sc(N3CCCC[C@@H]3C(=O)NCc3ccccc3)nc2c(=O)n1CC: 6.62

I: O=C(NCc1ccccc1)[C@H]1CCCN1c1nc2c(=O)n(N3CCCC3)c(C(F)(F)F)nc2s1
II: CCc1nc2sc(N3CCC[C@@H]3C(=O)NCc3cc(C)ccn3)nn2c(=O)c1F
III: Cc1nc2ccc(N3CCC[C@@H]3C(=O)NCc3ccccc3)nc2c(=O)n1CC(F)(F)F
IV: CN(C)CCn1c(C(F)(F)F)nc2sc(N3CCC[C@@H]3C(=O)NCc3ccccc3)nc2c1=O
V: CN(C)c1nc2sc([C@H]3CCCN3C(=O)Oc3ccccc3)nc2c(=O)[nH]1
Order the entries by their reported pIC50, beginning at the minimum. List labels; respect the requested ordering.
II, III, V, IV, I
(II: 6.25, III: 6.77, V: 7.16, IV: 7.41, I: 7.72)
